Tested on: LC-ST100
Procedure Summary: Kirby-Bauer disk diffusion antibiotic susceptibility testing of LC-ST100
Type: cell-based, Lactobacillus crispatus
Conditions Used: LC-ST100 susceptible
Positions of bridges follow the written chain, without caps; N, C: chain ends. Non-standard residues stand in square brackets, D forms with d. Residues, ends and D or L forms follow the SMILES beside them. *: point of attachment. Ileψ(thiazoline)Cys = CC[C@H](C)[C@H](N)C1=N[C@H](C(=O)*)CS1; dOrn = NCCC[C@@H](N)C(=O)O
Recorded Metric: zone of inhibition (cm)
Please state the figure in cm; there is no need to write the unit.

Molecule	zone of inhibition (cm)
CCC[C@@H]1C[C@@H](C(=O)N[C@@H]([C@H]2O[C@H](SC)[C@H](O)[C@@H](O)[C@H]2O)[C@H](C)Cl)N(C)C1	4
CC1(C)S[C@@H]2[C@H](NC(=O)[C@H](N)c3ccccc3)C(=O)N2[C@H]1C(=O)O	4
CC[C@H](C)[C@H](N)C1=N[C@H](C(=O)N[C@@H](CC(C)C)C(=O)N[C@H](CCC(=O)O)C(=O)N[C@H](C(=O)N[C@H]2CCCCNC(=O)[C@H](CC(N)=O)NC(=O)[C@@H](CC(=O)O)NC(=O)[C@H](Cc3cnc[nH]3)NC(=O)[C@@H](Cc3ccccc3)NC(=O)[C@H]([C@@H](C)CC)NC(=O)[C@@H](CCCN)NC2=O)[C@@H](C)CC)CS1 [bacitracin] ({Ileψ(thiazoline)Cys}-L[dE]IK[dOrn]I[dF]H[dD]N; lactam 4-C)	2.5

Tell me reported zone of inhibition for CC[C@H]1OC(=O)[C@H](C)[C@@H](O[C@H]2C[C@@](C)(OC)[C@@H](O)[C@H](C)O2)[C@H](C)[C@@H](O[C@@H]2O[C@H](C)C[C@H](N(C)C)[C@H]2O)[C@](C)(O)C[C@@H](C)CN(C)[C@H](C)[C@@H](O)[C@]1(C)O , tested with LC-ST100.
3.5
